Values from ChEMBL document CHEMBL1156082

What pIC50 was measured for each of the following?
experiment: Inhibition of gamma-secretase assessed as reduction in cell amyloid beta40 production
Just so you know, pIC50 here is -log10 of the concentration in molar units; reply with that number alone.

Which pIC50 is listed for O=C(OC1([C@H]2COC[C@@H](C3CC3)N2S(=O)(=O)c2ccc(Cl)cc2)CC1)N1CC2CCC(C1)N2 ?
7.60

Moving on to CN1CC2CCC(C1)N2C(=O)OC1([C@H]2COC[C@@H](C3CC3)N2S(=O)(=O)c2ccc(Cl)cc2)CC1
7.77

Moving on to CCN1C2CCC1CN(C(=O)OC1([C@H]3COC[C@@H](C4CC4)N3S(=O)(=O)c3ccc(Cl)cc3)CC1)C2
7.60

Moving on to NC(=O)CC1CCN(C(=O)OC2([C@H]3COC[C@@H](C4CC4)N3S(=O)(=O)c3ccc(Cl)cc3)CC2)CC1
7.39

Moving on to O=C(OC1([C@H]2COC[C@@H](C3CC3)N2S(=O)(=O)c2ccc(Cl)cc2)CC1)N1CC2CCC(C1)N2CCO
7.82

Moving on to O=C(OC1([C@H]2COC[C@@H](C3CC3)N2S(=O)(=O)c2ccc(Cl)cc2)CC1)N1C2CCC1CNC2
7.14

Moving on to CN1C2CCC1CN(C(=O)OC1([C@H]3COC[C@@H](C4CC4)N3S(=O)(=O)c3ccc(Cl)cc3)CC1)C2
7.70

Moving on to O=C(OC1([C@H]2COC[C@@H](C3CC3)N2S(=O)(=O)c2ccc(Cl)cc2)CC1)N1C2CCC1CN(CCO)C2
7.57

Moving on to O=C(OC[C@H]1COC[C@@H](c2cc(F)cc(F)c2)N1S(=O)(=O)c1ccc(Cl)cc1)N1CCN(CCO)CC1
7.02

Moving on to O=C(OC1([C@H]2COC[C@@H](C3CC3)N2S(=O)(=O)c2ccc(Cl)cc2)CC1)N1CC[C@H](OCCO)C1
7.51
